Target: T1, human MS4A4A ECL2 peptide (amino acid residues 159-179), free (human)
T1 construct: synthetic peptide; also called huMS4A4A-ELC2 free-peptide
T1 peptide: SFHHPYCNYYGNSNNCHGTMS
Assay: peptide ELISA, supernatant
measuredAttribute: binding result

anti-MS4A4A antibody 4A-220 (antibody, V domains shown, murine hybridoma antibody) VH: EVQLQQSGPDLVKPGASVKISCKASGYSFNGYFMNWVMQSHGESLEWIGRINPYNGDTLYNQKFKGKATLTVDKSSSTGHMELRSLASEDSAVYYCARVKGYDYDGAMDYWGQGTSVTVSS VL: DIVMTQSPDSLAVSLGERATINCRSSQSLLQSGNQKSSLAWYQQKPGQPPKLLIFWARTRQSGVPDRFSGSGSGTDFTLTISSVQAEDVAVYYCQQYSDTPFTFGQGTKLEIK	no binding
anti-MS4A4A antibody 4A-210 (murine) (antibody, V domains shown, murine hybridoma antibody) VH: DVKLVESGGGLVKPGGSLKLSCAASGFTFGTYTMSWVRQTPEKRLEWVATISSGGSYTFYPDSVKGRFTISRDNAKNTLYLQMSSLKSEDTAMYYCTRDNTTGDRGWYFDVWGAGTTVTVSS VL: DIVLTQSPVSLAVSLGQRATISCQASESVSFAGKSLMHWFQQKPGQPPKLLIYRASNLESGVPARFSGSGSESDFTLTIDPVEEDDATMYYCMQSMEDPRTFGGGTKLEIK	no binding
anti-MS4A4A antibody 4A-208 (murine) (antibody, V domains shown, murine hybridoma antibody) VH: EVHLQQSGAEVVKPGASVKLSCTASGFNIKDTYIHWVMQRPEQGLEWIGRIDPANDNTKYDPKFQGKATITSDTSSNTAYLHLSSLTSEDTAVYYCARIAYGSWALDYWGQGTSVTVSS VL: DIVMTQSQKFMSTSVGDRVIVTCKASQNVDTNVAWYQQKPGQSPKTLIYSASFRYSGVPDRFTGSGSGTDFTLSISNVQSEDLAEYFCQQYNSYPWTFGGGTKLEIK	no binding

Data provenance is patent US20230126400A1.
